Values were extracted from PubChem BioAssay (NCI).

Reported growth is given for each of the following compounds.
System: MDA-MB-231 breast
Assay: NCI-60 one-dose screen, 48 h (100 = growth as untreated, 0 = no growth, -100 = all killed)
Details: 10 µM unless noted
This is part of a sample that, as a whole, favours compounds with a hit. Of some 83,000 tested, about 20% had one in any assay.
Give the value, in units of %, as a plain number.

Below are worked cases with known answers.
COc1cc2c(cc1OC)C(=O)OC2 : 102
NC(N)=N/N=C\c1cccc(OCc2ccccc2)c1 : 76
C/C(=N\OC(=O)Nc1cccc(Cl)c1)c1ccccc1 : 103
CNCCCNc1ccnc2cc(Cl)ccc12 : -33.8
C[C@]12CCc3nc(Nc4ccc(O)cc4)sc3C1=CC[C@@H]1[C@@H]2CC[C@]2(C)/C(=N/NC(N)=S)CC[C@@H]12 : -40.4
COc1cc(C)cc2oc3oc(=O)c(-c4csc(-c5cc6ccccc6oc5=O)n4)cc3c(=O)c12 : 99.5
Oc1[nH]c2ccccc2c1/C=c1/ccc2c(c1)N=C(c1ccc(C(F)(F)F)cc1)N=2 : 46.6
CC[C@H](Nc1nc(C)nc(N)c1C#N)c1nc2cccc(NCc3ccc(C(=O)NO)cc3)c2c(=O)n1-c1ccccc1 : 14.7

Specify growth for NC(=S)N/N=C(/c1cccs1)C1CC1 and stop.
91.4

Specify growth for CCOP(=O)(O)OP(=O)(O)OCC and stop.
112
